# Experimental target: human V1a receptor (Homo sapiens, UniProt P37288)
# Sequence (P37288 whole entry): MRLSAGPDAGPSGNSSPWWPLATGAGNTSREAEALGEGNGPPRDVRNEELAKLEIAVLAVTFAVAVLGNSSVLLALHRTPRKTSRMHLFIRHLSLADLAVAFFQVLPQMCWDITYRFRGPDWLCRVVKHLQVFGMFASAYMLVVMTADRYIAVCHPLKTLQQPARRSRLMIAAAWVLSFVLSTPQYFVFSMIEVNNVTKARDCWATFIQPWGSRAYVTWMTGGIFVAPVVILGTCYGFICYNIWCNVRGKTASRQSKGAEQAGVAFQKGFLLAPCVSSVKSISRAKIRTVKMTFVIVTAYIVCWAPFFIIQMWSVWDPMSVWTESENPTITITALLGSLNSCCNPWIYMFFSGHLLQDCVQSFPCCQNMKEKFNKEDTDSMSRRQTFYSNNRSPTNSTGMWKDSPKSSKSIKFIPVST
# Protocol details: V1a vasopressin receptor functional activity (calcium mobilization, FLIPR, V1a-HEK cells)
# Format: cell-based
# Test conditions: inhibition of vasopressin-induced intracellular calcium mobilization in V1a-HEK cells
Consider the following compounds; for each one, report its IC50.
One number for each entry, in µM.

Please review the following examples before continuing.
Ask: Find the measured IC50 of O=C(Nc1ccc(C(=O)N2CCC3(CCCNC3=O)Cc3ccccc32)cc1)c1cc(F)ccc1Cl (centres unmarked) and report it.
Result: 0.05

Ask: Look up IC50 of O=C(Nc1ccc(C(=O)N2CCC3(CCCNC3=O)Cc3ccccc32)cc1)c1ccccc1F (centres unmarked) and report it.
Result: 0.05

Ask: Give me measured IC50, please, for this compound: O=C(Nc1ccc(C(=O)N2CCC3(CCNC3=O)Cc3ccccc32)cc1)c1cc(F)ccc1Cl (centres unmarked)
Result: 0.01

Ask: Look up and state reported IC50 for O=C1CCCC2(CCN(C(=O)c3ccc(NC(=O)c4ccccc4-c4ccccc4)cc3)c3ccccc3C2)N1 (centres unmarked)
Result: 0.05

Ask: Answer with the recorded IC50 for the compound listed here: CCN1CCCC2(CCN(C(=O)c3ccc(NC(=O)c4ccccc4-c4ccccc4)cc3)c3ccccc3C2)C1=O (centres unmarked)
Result: 0.05

Ask: Return reported IC50. Input compound: CN1CCC2(CCN(C(=O)c3ccc(NC(=O)c4ccccc4-c4ccccc4)cc3)c3ccccc3C2)C1=O (centres unmarked)
Result: 0.08

Batch lookup, IC50 per entry.
1. O=C(Nc1ccc(C(=O)N2CCC3(CCCNC3=O)Cc3ccccc32)cc1)c1ccccc1 (centres unmarked)
2. O=C(Nc1ccc(C(=O)N2CCC3(CCNC3=O)Cc3ccccc32)cc1)c1ccccc1-c1ccccc1 (centres unmarked)
3. CN1CCCC2(CCN(C(=O)c3ccc(NC(=O)c4ccccc4-c4ccccc4)cc3)c3ccccc3C2)C1=O (centres unmarked)
4. COc1cc(C(=O)N2CCC3(CCN(C)C3=O)Cc3ccccc32)ccc1NC(=O)c1cc(F)ccc1Cl (centres unmarked)
5. Cc1ccc(F)cc1C(=O)Nc1ccc(C(=O)N2CCC3(CCNC3=O)Cc3ccccc32)cn1 (centres unmarked)

Result:
1: 0.12; 2: 0.054; 3: 0.38; 4: 0.07; 5: 0.13

----------
# Experimental target: human V1a receptor (Homo sapiens, UniProt P37288)
# Protocol details: In-vitro binding assay, 3H-arginine-8-vasopressin, V1a membranes
# Test conditions: membrane containing human V1a receptor; 3H-vasopressin 0.65-0.75 nM
Attribute measured: pIC50
Numbers only, as −log10 of the molar value.

Check out these entries, answers already filled in.
Ask: Please indicate pIC50 recorded for O=C1CCCC2(CCN(C(=O)c3ccc(NC(=O)c4ccccc4-c4ccccc4)cc3)c3ccccc3C2)N1 (centres unmarked) [Compound 35]
Result: 7.35

Ask: Please look at this molecule and report its pIC50: CCN1CCCC2(CCN(C(=O)c3ccc(NC(=O)c4ccccc4-c4ccccc4)cc3)c3ccccc3C2)C1=O (centres unmarked) [Compound 11]
Result: 7.25

Ask: For the molecule O=C(Nc1ccc(C(=O)N2CCC3(CCNC3=O)Cc3ccccc32)cc1)c1cc(F)ccc1Cl (centres unmarked) [Compound 18] , give its reported pIC50.
Result: 8.10

Ask: Return value of pIC50 for input O=C(Nc1ccc(C(=O)N2CCC3(CCNC3=O)Cc3ccccc32)cc1)c1ccccc1F (centres unmarked) [Compound 26] , no commentary.
Result: 6.80

Ask: Output measured pIC50 for this item: CN1CCC2(CCN(C(=O)c3ccc(NC(=O)c4ccccc4-c4ccccc4)cc3)c3ccccc3C2)C1=O (centres unmarked) [Compound 21]
Result: 7.37

Ask: Quickly give me recorded pIC50 for CN1CCCC2(CCN(C(=O)c3ccc(NC(=O)c4ccccc4-c4ccccc4)cc3)c3ccccc3C2)C1=O (centres unmarked) [Compound 10]
Result: 7.33

Ask: Write down pIC50 measured for item O=C(Nc1ccc(C(=O)N2CCC3(CCNC3=O)Cc3ccccc32)cc1)c1ccccc1-c1ccccc1 (centres unmarked) [Compound 25]
Result: 8.15

Ask: Quickly give me recorded pIC50 for O=C(Nc1ccc(C(=O)N2CCC3(CCCNC3=O)Cc3ccccc32)cc1)c1ccccc1 (centres unmarked) [Compound 37]
Result: 7.30

Please give pIC50, item by item, for the list that follows.
1. Cc1ccc(F)cc1C(=O)Nc1ccc(C(=O)N2CCC3(CCNC3=O)Cc3ccccc32)cc1 (centres unmarked) [Compound 27]
2. O=C(Nc1ccc(C(=O)N2CCC3(CCCNC3=O)Cc3ccccc32)cc1)c1cc(F)ccc1Cl (centres unmarked) [Compound 7]

Result:
[7.82, 8.05]

Ask: Quick one: give measured pIC50 for O=C(Nc1ccc(C(=O)N2CCC3(CCCNC3=O)Cc3ccccc32)cc1)c1ccccc1F (centres unmarked) [Compound 36]
Result: 7.57

----------
# Experimental target: human V1a receptor (Homo sapiens, UniProt P37288)
# Protocol details: In-vitro binding assay, 3H-arginine-8-vasopressin, V1a membranes
# Test conditions: at 0.2 μM; membrane containing human V1a receptor; read-out: V1a (binding) Percent inhibition at 0.2 μM
Attribute measured: inhibition at 0.2 µM (%)
Give bare numbers, in %.

Ask: Give human V1a receptor (Homo sapiens, UniProt P37288) inhibition at 0.2 µM for the following molecule: CCOC(=O)CN1CCC2(CCN(C(=O)c3ccc(NC(=O)c4cc(F)ccc4Cl)cc3)c3ccccc3C2)C1=O (stereo not shown)
Result: 66

Ask: Please indicate recorded inhibition at 0.2 µM of COc1cc(C(=O)N2CCC3(CCN(C)C3=O)Cc3ccccc32)ccc1NC(=O)c1cc(F)ccc1Cl (stereo not shown) measured with human V1a receptor (Homo sapiens, UniProt P37288).
Result: 58

Ask: Supply inhibition at 0.2 µM measured with human V1a receptor (Homo sapiens, UniProt P37288) for Cc1ccc(F)cc1C(=O)Nc1ccc(C(=O)N2CCC3(CCNC3=O)Cc3ccccc32)cn1 (stereo not shown) .
Result: 64

More entries:
Ask: Output reported inhibition at 0.2 µM of the molecule O=C(O)CN1CCC2(CCN(C(=O)c3ccc(NC(=O)c4cc(F)ccc4Cl)cc3)c3ccccc3C2)C1=O (stereo not shown) on human V1a receptor (Homo sapiens, UniProt P37288).
Result: 27

----------
# Experimental target: human V2 receptor (Homo sapiens)
# Sequence (P30518 whole entry): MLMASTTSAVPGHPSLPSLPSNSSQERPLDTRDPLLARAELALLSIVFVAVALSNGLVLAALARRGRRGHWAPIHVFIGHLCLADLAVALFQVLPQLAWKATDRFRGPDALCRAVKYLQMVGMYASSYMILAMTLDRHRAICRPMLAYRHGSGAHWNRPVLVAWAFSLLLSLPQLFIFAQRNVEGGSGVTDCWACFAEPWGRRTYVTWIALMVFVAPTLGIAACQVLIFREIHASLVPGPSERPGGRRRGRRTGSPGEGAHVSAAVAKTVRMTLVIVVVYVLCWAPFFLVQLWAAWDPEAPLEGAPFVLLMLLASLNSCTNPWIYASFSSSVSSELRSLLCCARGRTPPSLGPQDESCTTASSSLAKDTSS
# Protocol details: In-vitro binding assay, 3H-arginine-8-vasopressin, V2 membranes
# Test conditions: at 0.2 μM; membrane containing human V2 receptor; read-out: V2 (binding) Percent inhibition at 0.2 μM
Provide the recorded inhibition at 0.2 µM for the entries that follow.
The reply must contain the numeric value and, after it, the unit.

Ask: Give the value of inhibition at 0.2 µM reported for the following: O=C(Nc1ccc(C(=O)N2CCC3(CCCNC3=O)Cc3ccccc32)cc1)c1ccccc1 (centres unmarked)
Result: 23%

Ask: Indicate the recorded inhibition at 0.2 µM value for this compound: O=C(Nc1ccc(C(=O)N2CCC3(CCCNC3=O)Cc3ccccc32)cc1)c1ccccc1F (centres unmarked)
Result: 17%

Ask: Please indicate inhibition at 0.2 µM recorded for O=C(O)CN1CCC2(CCN(C(=O)c3ccc(NC(=O)c4cc(F)ccc4Cl)cc3)c3ccccc3C2)C1=O (centres unmarked)
Result: 17%

Ask: Supply measured inhibition at 0.2 µM of CCOC(=O)CN1CCC2(CCN(C(=O)c3ccc(NC(=O)c4cc(F)ccc4Cl)cc3)c3ccccc3C2)C1=O (centres unmarked) in your reply.
Result: 17%

Attention now turns to another entry.
Ask: Give inhibition at 0.2 µM for the following compound: O=C(Nc1ccc(C(=O)N2CCC3(CCCNC3=O)Cc3ccccc32)cc1)c1cc(F)ccc1Cl (centres unmarked)
Result: 63%
